procedure text: Absorption and fluorescence spectroscopy of dyes
Type: physicochemical
experimental conditions: Table 1; 10 mM HEPES pH 7.3
condition met if λem is below 600 nm. condition not met if not; exact matches included in condition not met.

Please check: λem for O=C([O-])c1ccccc1-c1c2ccc(=[N+]3CCC3)cc-2oc2cc(N3CCC3)ccc12 [Example 7] , strictly under 600 nm or not?
condition met

Please check: λem for O=C([O-])c1ccccc1-c1c2ccc(=[N+]3CC(F)C3)cc-2oc2cc(N3CC(F)C3)ccc12 (stereo not shown) [Example 10] , strictly under 600 nm or not?
condition met

Please check: λem for CC1(C)CN(c2ccc3c(-c4ccccc4C(=O)[O-])c4ccc(=[N+]5CC(C)(C)C5)cc-4oc3c2)C1 [Example 8] , strictly under 600 nm or not?
condition met

Please check: λem for C[Si]1(C)C2=CC(=[N+]3CC(F)C3)C=CC2=C(c2ccccc2C(=O)[O-])c2ccc(N3CC(F)C3)cc21 (stereo not shown) [Example 31] , strictly under 600 nm or not?
condition not met

Please check: λem for C[Si]1(C)C2=CC(=[N+]3CCC3)C=CC2=C(c2ccccc2C(=O)[O-])c2ccc(N3CCC3)cc21 [Example 30] , strictly under 600 nm or not?
condition not met

Please check: λem for N#CC1CN(c2ccc3c(-c4ccccc4C(=O)[O-])c4ccc(=[N+]5CC(C#N)C5)cc-4oc3c2)C1 (stereo not shown) [Example 12] , strictly under 600 nm or not?
condition met
